- TARGET_OR_SYSTEM: CYP3A4 (Homo sapiens, UniProt P08684)
- Sequence (P08684 whole entry): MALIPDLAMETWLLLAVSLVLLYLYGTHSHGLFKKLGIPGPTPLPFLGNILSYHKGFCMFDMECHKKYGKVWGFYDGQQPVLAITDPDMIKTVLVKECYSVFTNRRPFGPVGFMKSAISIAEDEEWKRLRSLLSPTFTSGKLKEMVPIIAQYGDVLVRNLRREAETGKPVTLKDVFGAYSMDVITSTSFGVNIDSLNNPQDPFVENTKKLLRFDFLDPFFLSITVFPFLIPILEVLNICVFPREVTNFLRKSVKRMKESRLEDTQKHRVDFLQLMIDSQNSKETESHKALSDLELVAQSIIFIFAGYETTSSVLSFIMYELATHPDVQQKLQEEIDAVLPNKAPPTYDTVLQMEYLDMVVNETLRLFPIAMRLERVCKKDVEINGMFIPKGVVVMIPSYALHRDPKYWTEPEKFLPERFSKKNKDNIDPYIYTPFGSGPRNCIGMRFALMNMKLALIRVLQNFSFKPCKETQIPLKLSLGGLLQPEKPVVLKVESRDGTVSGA
- TEST_SUMMARY: Inhibitory activity of 200 µM SPP100 on cDNA-derived CYP3A4 enzyme in microsome prepared from human lymphoblastoid cell line
- Assay type: ADME, microsomes
- Set-up: conc 200 uM, interact cpd conc 120 uM
- TEST_CONTEXT: probe testosterone (120 uM)

CHEMICAL_SMILES | inhibition at 200 µM / %
COCCCOc1cc(C[C@@H](C[C@H](N)[C@@H](O)C[C@H](C(=O)NCC(C)(C)C(N)=O)C(C)C)C(C)C)ccc1OC | 11

* * *

- TEST_SUMMARY: Terminal elimination half-life of SPP100 following single oral dose of SPP100 600 mg capsule studied in healthy human
- Type: ADME, organism-based
- TEST_CONTEXT: plasma

CHEMICAL_SMILES | READOUT_UNIT | half-life
COCCCOc1cc(C[C@@H](C[C@H](N)[C@@H](O)C[C@H](C(=O)NCC(C)(C)C(N)=O)C(C)C)C(C)C)ccc1OC | min | 2040
